All figures here come from patent US20210255193A1.

Biological target: GSTT2B Glutathione S-transferase theta-2B (Homo sapiens, UniProt P0CG30)
Construct: isoTOP-ABPP experiments performed in cell lysates (in vitro); endogenous in cells; host or cells: MDA-MB-231 soluble lysate
Sequence (P0CG30 1-244): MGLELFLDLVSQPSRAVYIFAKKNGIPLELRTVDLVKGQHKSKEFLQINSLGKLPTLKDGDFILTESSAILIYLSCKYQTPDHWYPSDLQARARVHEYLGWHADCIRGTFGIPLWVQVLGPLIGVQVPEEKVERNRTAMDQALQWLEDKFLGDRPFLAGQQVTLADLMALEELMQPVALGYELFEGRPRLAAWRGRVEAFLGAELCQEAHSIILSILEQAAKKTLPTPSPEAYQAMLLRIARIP
Assay: competitive isoTOP-ABPP
Assay type: binding
Conditions: P0CG30_K53; 50 uM, 231 sol, in vitro
OBSERVABLE: R value (DMSO/fragment) for probe 1 labeling
Number, no unit, nothing else.

Answered examples (4):
O=C(Oc1c(F)c(F)c(F)c(F)c1F)c1cc(C(F)(F)F)cc(C(F)(F)F)c1 [fragment 21]	0.9
Cn1cc(CC(=O)Oc2c(F)c(F)c(F)c(F)c2F)c2ccccc21 [fragment 22]	1.0
COc1cc(CCC(=O)Oc2c(F)c(F)c(F)c(F)c2F)cc(OC)c1OC [fragment 23]	0.9
O=C(CCc1cn(-c2ccccc2)nc1-c1ccccc1)Oc1c(F)c(F)c(F)c(F)c1F [fragment 19]	1.0

Then this molecule:
Need R value (DMSO/fragment) for probe 1 labeling, item O=C(Oc1c(F)c(F)c(F)c(F)c1F)C(c1ccccc1)c1ccccc1 [fragment 20, Pentafluorophenyl 2,2-diphenylacetate]
1.0

###

biological target: KIAA1967 DBIRD complex subunit KIAA1967 (Homo sapiens); construct: isoTOP-ABPP experiments performed in cell lysates (in vitro); endogenous in cells; host or cells: soluble proteome of human cancer cell lines (MDA-MB-231; Ramos and Jurkat also prepared); assay: competitive isoTOP-ABPP; format: binding; conditions: Q8N163_K112; 50 uM, 231 sol, in vitro
Sequence (Q8N163 whole entry, the tested form may be a part, one chain of several): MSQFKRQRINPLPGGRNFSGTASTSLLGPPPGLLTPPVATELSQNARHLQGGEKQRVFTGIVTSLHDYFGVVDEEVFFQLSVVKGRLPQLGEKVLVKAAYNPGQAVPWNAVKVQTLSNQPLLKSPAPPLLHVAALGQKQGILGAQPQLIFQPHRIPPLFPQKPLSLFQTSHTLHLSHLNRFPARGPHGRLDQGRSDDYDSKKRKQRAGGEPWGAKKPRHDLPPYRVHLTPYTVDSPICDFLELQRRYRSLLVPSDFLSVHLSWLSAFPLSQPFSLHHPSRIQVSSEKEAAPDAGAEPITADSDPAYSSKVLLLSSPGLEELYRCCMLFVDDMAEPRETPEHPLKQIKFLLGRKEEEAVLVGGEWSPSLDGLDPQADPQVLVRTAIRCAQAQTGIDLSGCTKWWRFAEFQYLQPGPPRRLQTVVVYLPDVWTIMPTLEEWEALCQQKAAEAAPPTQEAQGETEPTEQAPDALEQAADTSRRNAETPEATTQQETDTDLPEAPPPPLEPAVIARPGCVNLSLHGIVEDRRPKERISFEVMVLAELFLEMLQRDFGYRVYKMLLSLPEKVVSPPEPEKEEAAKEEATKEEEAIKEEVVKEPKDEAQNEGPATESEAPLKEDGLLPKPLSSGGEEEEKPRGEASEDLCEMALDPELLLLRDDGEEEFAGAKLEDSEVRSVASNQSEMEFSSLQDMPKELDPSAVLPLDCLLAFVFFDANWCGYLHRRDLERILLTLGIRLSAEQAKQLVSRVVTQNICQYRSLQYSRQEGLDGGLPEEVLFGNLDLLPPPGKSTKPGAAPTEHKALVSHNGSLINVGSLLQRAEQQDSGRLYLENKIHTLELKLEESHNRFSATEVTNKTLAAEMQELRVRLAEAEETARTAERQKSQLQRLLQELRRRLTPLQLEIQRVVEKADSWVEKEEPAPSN
Property: R value (DMSO/fragment) for probe 1 labeling; scope: individual compounds

Below: 4 compounds and their reported R value (DMSO/fragment) for probe 1 labeling.
Cn1cc(CC(=O)Oc2c(F)c(F)c(F)c(F)c2F)c2ccccc21 [fragment 22]	1.1
O=C(CCc1cn(-c2ccccc2)nc1-c1ccccc1)Oc1c(F)c(F)c(F)c(F)c1F [fragment 19]	1.2
O=C(Oc1c(F)c(F)c(F)c(F)c1F)C(c1ccccc1)c1ccccc1 [fragment 20, Pentafluorophenyl 2,2-diphenylacetate]	1.0
COc1cc(CCC(=O)Oc2c(F)c(F)c(F)c(F)c2F)cc(OC)c1OC [fragment 23]	1.1

Okay, next one:
Return reported R value (DMSO/fragment) for probe 1 labeling; argument: O=C(Oc1c(F)c(F)c(F)c(F)c1F)c1cc(C(F)(F)F)cc(C(F)(F)F)c1 [fragment 21]
1.0

###

Each record here notes measured isoTOP-ABPP ratio (R) at liganded lysine Q969Y2_K492.
target: GTPBP3 tRNA modification GTPase GTPBP3, mitochondrial (Homo sapiens, UniProt Q969Y2); construct: isoTOP-ABPP experiments performed in cell lysates (in vitro); endogenous in cells; host or cells: soluble proteome of human cancer cell lines (MDA-MB-231; Ramos and Jurkat also prepared); test: competitive isoTOP-ABPP; assay type: binding; conditions: 50 uM, in vitro, sol, 231
Sequence (Q969Y2 21-492): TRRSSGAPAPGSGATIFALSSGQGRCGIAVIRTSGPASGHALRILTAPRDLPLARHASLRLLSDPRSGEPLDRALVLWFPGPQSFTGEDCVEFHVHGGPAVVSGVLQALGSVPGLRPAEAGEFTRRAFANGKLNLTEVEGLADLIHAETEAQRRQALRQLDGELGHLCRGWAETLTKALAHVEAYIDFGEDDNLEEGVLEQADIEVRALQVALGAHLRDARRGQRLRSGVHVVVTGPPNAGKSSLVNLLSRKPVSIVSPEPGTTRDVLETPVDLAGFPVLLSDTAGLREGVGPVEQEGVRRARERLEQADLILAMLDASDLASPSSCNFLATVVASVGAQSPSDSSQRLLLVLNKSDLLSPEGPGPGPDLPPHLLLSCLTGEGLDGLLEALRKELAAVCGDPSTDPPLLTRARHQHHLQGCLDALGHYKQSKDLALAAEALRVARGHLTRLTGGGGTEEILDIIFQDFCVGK
Respond numerically, and do not add a unit to the figure.

Some molecules with recorded isoTOP-ABPP ratio (R) at liganded lysine Q969Y2_K492:
CC(=O)Oc1ccc([N+](=O)[O-])cc1[N+](=O)[O-] [fragment 43, 2,4-Dinitrophenyl acetate]	1.5
O=C(CC12CC3CC(CC(C3)C1)C2)Oc1ccc([N+](=O)[O-])cc1[N+](=O)[O-]	1.1
O=C(CCc1coc2cc(F)ccc2c1=O)Oc1ccc([N+](=O)[O-])cc1[N+](=O)[O-]	2.9
O=C(Oc1ccc([N+](=O)[O-])cc1[N+](=O)[O-])c1ccc(Oc2ccccc2)cc1 [fragment 39, 2,4-Dinitrophenyl 4-phenoxybenzoate]	1.2

Which isoTOP-ABPP ratio (R) at liganded lysine Q969Y2_K492 is reported for this molecule? O=C(Oc1ccc([N+](=O)[O-])cc1[N+](=O)[O-])C1CCN(C(=O)OCc2ccccc2)CC1
1.6
